The reported measurements were obtained from PubChem BioAssay AID1814.

- experiment: Activators via SNCA 5'UTR binding, MLPCN (AID 1814)
- condition: alpha-synuclein 5'UTR reporter, activators screen; hits give low values; tested at 7.5 µM
About 22,000 (7.3%) of roughly 300,000 compounds were called active. About 2% were inconclusive and are not listed. Many of the other results were omitted from the sample, so actives are more common in it than they were.
measured-parameter: activity score (%)

molecule	measured-parameter	test-result
CN(C(=O)CSc1nncc2ccccc12)C1CCCCC1	activity score	-107
CC(/C=N/NC(=O)c1cc(-c2ccc3ccccc3c2)n[nH]1)=C\c1ccco1	activity score	-220
COc1cc(Cl)ccc1OCc1cc(C(=O)N2CC[C@@H]3CCCC[C@H]3C2)no1	activity score	-69
O=C(Cc1ccc(Br)cc1)N1CCN(c2ccccn2)CC1	activity score	-73.7
COCCCNC(=S)NC(=O)c1ccccc1	activity score	-88.8
COc1ccc(/C=N/Nc2ncnc3sc4c(c23)CCCC4)cc1O	activity score	-197
CN(c1ccc2nc3ccccc3c(=O)n2n1)C1CCCCC1	activity score	119
Oc1ccc(-c2cccc(-c3ccc(O)cc3)c2)cc1	activity score	-135
CN(C)c1nc(N)nc(CSc2nnnn2-c2cccc3ccccc23)n1	activity score	68.9
Cc1c(C(=O)N2CCCc3ccccc32)oc2ccccc12	activity score	-96.2
COc1ccc(Nc2cc(=O)oc3ccccc23)cc1	activity score	-97.7
Cc1noc(C)c1CCC(=O)N1CCCC(CO)(Cc2ccccc2)C1 (stereo not drawn)	activity score	-110
Cc1cc2nc(SCCN3CCOCC3)[nH]c2cc1C	activity score	-115
